system: PC3 cells; experiment: Cell metabolism inhibition assay (Cell titre Blue) with fatty acids; type: cell-based; conditions: 100 μM fatty acid; 100% = undrugged media
recorded-endpoint: Cellular Metabolic Activity (%)
Just the number please, in %, no unit attached.

Q. Reported Cellular Metabolic Activity for PC3 cells, given CCCCCC/C=C/C=C\CCCCCCCC(=O)O [CLA, 9Z, 11E conjugated Linoleic acid] ?
A. 67

Q. Could you share what Cellular Metabolic Activity was measured for "CC/C=C\C/C=C\C/C=C\C/C=C\C/C=C\CCCC(=O)O" , tested on PC3 cells?
A. 37

Q. // lookup Cellular Metabolic Activity | system=PC3 cells | key= "CCCCCCCC/C=C\CCCCCCCC(=O)O"
A. 111

Q. What Cellular Metabolic Activity appears in the records for this compound with PC3 cells? "CC/C=C\C/C=C\C/C=C\C/C=C\C/C=C\C/C=C\CCC(=O)O"
A. 34

* * *

target: HSD10 (Homo sapiens); construct: endogenous in cells; host or cells: PC3 cells; test: HSD10 Enzyme Inhibition Assay; assay type: biochemical; settings: 50 μM drug
Provide the recorded Reductive Activity Rate for the entries that follow.
Value expressed in µM/min; do not type the unit.

Q. Please look up its Reductive Activity Rate: "CN(C)CCCN1c2ccccc2Sc2ccc(Cl)cc21"
A. 7.2

Q. Name the reported Reductive Activity Rate value associated with the compound CN(C)CCOC(c1ccccc1)c1ccccc1 [Diphenhydramine]
A. 8.3

Q. Reported Reductive Activity Rate, compound "Cc1nc2n(c(=O)c1CCN1CCC(c3noc4cc(F)ccc34)CC1)CCCC2" : ____
A. 3.3

Q. # Reductive Activity Rate lookup, item "CN(C)CCCN1c2ccccc2CCc2ccc(Cl)cc21"
A. 7.5

* * *

Consider the following molecules; for each one, report its Cellular Metabolic Activity.
system: PC3 cells; test: Cell metabolism inhibition assay (Cell titre Blue) with fatty acids; assay type: cell-based; details: 100 μM fatty acid; 100% = undrugged media
Form entry: value (%) — number only.

Q. Return reported Cellular Metabolic Activity; argument: "CCCCCC[C@@H](O)C/C=C\CCCCCCCC(=O)O"
A. 94

Q. Quick check: Cellular Metabolic Activity of "CCCCC/C=C\C/C=C\C/C=C\C/C=C\CCCC(=O)O" ?
A. 60

Q. Any idea what its Cellular Metabolic Activity is? The molecule is "CC/C=C\C/C=C\C/C=C\CCCCCCCC(=O)O"
A. 114

* * *

target: HSD10 (Homo sapiens, UniProt Q99714); construct: endogenous in cells; host or cells: PC3 cells; experiment: HSD10 Enzyme Inhibition Assay; assay type: biochemical; conditions: 50 μM drug; read-out: Oxidative Activity Drug Inhibition
Sequence (Q99714 whole entry): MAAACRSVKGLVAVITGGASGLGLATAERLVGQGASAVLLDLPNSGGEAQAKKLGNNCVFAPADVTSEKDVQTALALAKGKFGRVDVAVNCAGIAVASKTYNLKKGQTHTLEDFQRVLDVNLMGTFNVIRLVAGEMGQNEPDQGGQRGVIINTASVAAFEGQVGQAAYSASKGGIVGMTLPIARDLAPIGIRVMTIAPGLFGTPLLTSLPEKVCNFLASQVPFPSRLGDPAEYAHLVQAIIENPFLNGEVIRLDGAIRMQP
recorded-endpoint: inhibition at 50 µM (%)
Express the result in % but write the number alone.

Q. Requested read-out: inhibition at 50 µM. Entry: CN(C)CCOC(c1ccccc1)c1ccccc1 [Diphenhydramine]
A. 5

Q. Look up inhibition at 50 µM: "CN(C)CCCN1c2ccccc2CCc2ccc(Cl)cc21"
A. 73

Q. So what's the measured inhibition at 50 µM for this one? "CN1CCN(C2=Nc3cc(Cl)ccc3Nc3ccccc32)CC1"
A. 43

Q. inhibition at 50 µM lookup needed for "CN(C)CCCN1c2ccccc2Sc2ccc(Cl)cc21" , thanks.
A. 8

Q. Form field: reported inhibition at 50 µM of "Cc1nc2n(c(=O)c1CCN1CCC(c3noc4cc(F)ccc34)CC1)CCCC2"
A. 88
